Observed pIC50 values for PDK1 (Homo sapiens) are listed in what follows.
pIC50: −log10 of the molar value.

molecule | pIC50
CC(c1ccccc1)n1cc(-c2c[nH]c3ncc(-c4cnn(C)c4)cc23)nn1 (stereo not shown) | 6.00 to 9.30
CC(c1ccc(CO)cc1)n1cc(-c2c[nH]c3ncc(-c4cnn(C)c4)cc23)nn1 (stereo not shown) | 6.00 to 9.30
Cn1cc(-c2cnc3[nH]cc(-c4cn(Cc5c(F)cccc5C(F)(F)F)nn4)c3c2)cn1 | 6.00 to 9.30
CC(c1cccc(C(F)(F)F)c1)n1cc(-c2c[nH]c3ncc(-c4cnn(C)c4)cc23)nn1 (stereo not shown) | 6.00 to 9.30
c1ccc(Cn2cc(-c3c[nH]c4ncccc34)nn2)cc1 | 6.00 to 9.30
Cn1cc(-c2cnc3[nH]cc(-c4cn(Cc5ccccc5F)nn4)c3c2)cn1 | 6.00 to 9.30
Cn1cc(-c2cnc3[nH]cc(-c4cn(Cc5cccc(Cl)c5F)nn4)c3c2)cn1 | 6.00 to 9.30
Cc1cccc(Cn2cc(-c3c[nH]c4ncc(-c5cnn(C)c5)cc34)nn2)c1 | 6.00 to 9.30
Cn1cc(-c2cnc3[nH]cc(-c4cn(Cc5ccc(C(F)(F)F)cc5F)nn4)c3c2)cn1 | 6.00 to 9.30
Cn1cc(-c2cnc3[nH]cc(-c4cn(Cc5cccc(F)c5F)nn4)c3c2)cn1 | 6.00 to 9.30
Clc1ccc(Cn2cc(-c3c[nH]c4ncccc34)nn2)cc1 | 5.00 to 6.00
Cn1cc(-c2cnc3[nH]cc(-c4cn(CCN5CCOCC5)nn4)c3c2)cn1 | 6.00 to 9.30
CC(c1ccccc1C(F)(F)F)n1cc(-c2c[nH]c3ncc(-c4cnn(C)c4)cc23)nn1 (stereo not shown) | 6.00 to 9.30
Cn1cc(-c2cnc3[nH]cc(-c4cn(Cc5ccc6ncccc6c5)nn4)c3c2)cn1 | 6.00 to 9.30
COc1ccnc2[nH]cc(-c3cn(Cc4ccccc4)nn3)c12 | 6.00 to 9.30
Cn1cc(-c2cnc3[nH]cc(-c4cn(C(CC(=O)O)c5ccccc5)nn4)c3c2)cn1 (stereo not shown) | 6.00 to 9.30
Cn1cc(-c2cnc3[nH]cc(-c4cn(Cc5ccncc5)nn4)c3c2)cn1 | 6.00 to 9.30
Cn1cc(-c2cnc3[nH]cc(-c4cn(Cc5ccc(F)cc5)nn4)c3c2)cn1 | 6.00 to 9.30
Cc1[nH]c2ncccc2c1-c1cn(Cc2ccccc2)nn1 | 6.00 to 9.30
Cn1cc(-c2cnc3[nH]cc(-c4cn(Cc5cccc(C(F)(F)F)c5F)nn4)c3c2)cn1 | 6.00 to 9.30
Cn1cc(-c2cnc3[nH]cc(-c4cn(CCc5ccccc5)nn4)c3c2)cn1 | 6.00 to 9.30
Cn1cc(-c2cnc3[nH]cc(-c4cn(CC(O)c5ccccc5)nn4)c3c2)cn1 (stereo not shown) | 6.00 to 9.30
CC(c1ccc(C(=O)O)cc1)n1cc(-c2c[nH]c3ncc(-c4cnn(C)c4)cc23)nn1 (stereo not shown) | 6.00 to 9.30
Cn1cc(-c2cnc3[nH]cc(-c4cn(Cc5cccc(F)c5)nn4)c3c2)cn1 | 6.00 to 9.30
Cn1cc(-c2cnc3[nH]cc(-c4cn(Cc5ccc(F)cc5F)nn4)c3c2)cn1 | 6.00 to 9.30
